# Test system: OVCAR-8 ovarian
# test-summary: NCI tumour cell line growth inhibition, 48 h
measurement-kind: TGI

# count of solved cases: 3
CC1=C(C(=O)Nc2ccc3[nH]ncc3c2)C(c2ccc3ccccc3c2)CC(=O)N1 (stereo unspecified) :: > 25 µM
Cn1c(N2NC(=O)C(N=Nc3ccc(S(N)(=O)=O)cc3)C2=O)nc(-c2ccco2)c(C#N)c1=O (stereo unspecified) :: > 50 µM
S=C(N/N=C\C=N/NC(=S)N1CCCCC1)N1CCCCC1 :: > 100 µM

Provide TGI values for the following items, in order.
1. N=C1CSC2=NC3=C(CCC/C3=C\c3ccccc3)C(c3ccccc3)N12 (stereo unspecified)
2. CCOC(=O)C1Cc2[nH]c3ccccc3c2C(C)C1C (stereo unspecified)
3. O=C(O)c1cc2c(cc1CC(Cc1ccc3c(c1)CCC3)C(=O)O)CCC2 (stereo unspecified)
4. O=C1C(Cl)=C(N2CCN(C3=C(Cl)C(=O)c4ccccc4C3=O)CC2)C(=O)c2ccccc21
5. C[C@]12CC[C@@H]3c4ccc(O)cc4CC[C@H]3[C@@H]1C/C(=C\c1ccncc1)C2=O

Key:
1: 19.5 µM; 2: 13.4 µM; 3: > 100 µM; 4: 3.16 µM; 5: 56.3 µM

---

# Test system: BT-549 breast
# test-summary: NCI tumour cell line growth inhibition, 48 h
measurement-kind: GI50

O=c1oc2ccc(F)cc2c(=O)n1-c1ccc(F)cc1F :: 2.53 µM
N#Cc1ccc(C#Cc2ccccc2C#CCCCCO)cc1 :: 14.7 µM
CCCCC/C(C=C(C#N)C#N)=C/c1ccccc1 :: 2.52 µM
O=C1c2c(c3c4ccccc4n(CCCCCCBr)c3c3[nH]c4ccccc4c23)C(=O)N1O :: 1.83 µM
COc1cc2c3c(n(C)c(=O)c2cc1OC)-c1cc2c(cc1/C3=C\CCCN1C(=O)c3ccccc3C1=O)OCO2 :: 8.26 µM

I would be grateful if you could provide GI50 for each of the following entries.
1. COc1cccc(/C=N/NC(=O)c2ccccc2Nc2ccnc(C(F)(F)F)c2)c1O
2. NCC(=O)NS(=O)(=O)OC[C@H]1O[C@@H](n2cnc3c(N)ncnc32)[C@H](O)[C@@H]1O
3. CSc1cc(N=Nc2nc3ccccc3s2)c2ccccc2c1O
4. O=C(O)CCCCC(CCSCc1ccccc1)SCc1ccccc1 (stereo unspecified)
5. O=C1/C(=C/c2ccc(Cl)cc2Cl)N=C(c2ccccc2)N1Cc1ccco1
6. Cn1c(N2NC(=O)C(N=Nc3ccc(S(N)(=O)=O)cc3)C2=O)nc(-c2ccco2)c(C#N)c1=O (stereo unspecified)

Key:
1. 0.567 µM
2. 2.34 µM
3. 6.28 µM
4. 50.8 µM
5. 27.4 µM
6. 8.67 µM

Below is a list of compounds. For each, state its recorded GI50.
1. CNC(=O)OCc1c(COC(=O)NC)c(-c2ccc(Cl)c(Cl)c2)n2c1SCC2
2. CCc1c(Oc2ccc(C(C)=O)cc2)c2ccccc2[nH]c1=O
3. N#C/C(=C1C=C/C(=N/O)C(Br)=C/1)c1ccccc1

Key:
1. 6.23 µM
2. 17.6 µM
3. 9.59 µM

Would you be so kind as to report GI50 for each listed record?
1. COC(=O)CCCCN=Cc1c(O)c(O)c(C(C)C)c2cc(C)c(-c3c(C)cc4c(C(C)C)c(O)c(O)c(C=NCCCCC(=O)OC)c4c3O)c(O)c12
2. COc1ccc(/C(=C2\O[C@@H]([C@H]3COC(C)(C)O3)[C@H]3OC(C)(C)O[C@@H]23)c2cc(OC)c(OC)c(OC)c2)cc1O
3. COC(=O)c1cc2c3ccccc3[nH]c2c2ncccc12

Key:
["1.5 µM", "5.39 µM", "17.9 µM"]

Lab note: each compound below needs its GI50 filled in.
1. CC1=C(CCCNS(C)(=O)=O)C2=C(C)C3(CC3)[C@@](C)(O)C(=O)C2=C1
2. CSc1ccc(C2=NN(C(C)=O)C(c3cc(C)cs3)C2)cc1 (stereo unspecified)

Key:
1. 0.749 µM
2. 17.1 µM

# batch size: 2; output GI50 per entry
1. O=C1/C(=C/c2ccc(Br)cc2)C=C(c2ccccc2)N1CCc1ccccc1
2. CN(C)CCNc1cc(-c2ccccc2)nc2ccccc12

Key:
1: 2.59 µM; 2: 11.5 µM

---

# Test system: RPMI-8226 leukemia
# test-summary: NCI tumour cell line growth inhibition, 48 h
Answer each item with its documented TGI.
Give bare numbers, in µM.

CN1CCN(Cc2ccc(NC(=O)c3cncc(C#Cc4cnc(N)c5ccc(C#N)cc45)c3)cc2C(F)(F)F)CC1 :: 1.25
CC(C)(C)c1ccc2c(c1)CNCCNCc1cc(C(C)(C)C)ccc1OCC1(CO2)COc2ccc(C(C)(C)C)cc2CNCCNCc2cc(C(C)(C)C)ccc2OC1 :: 4.2

Exercise: Under RPMI-8226 leukemia: TGI value of CC(O[Si](c1ccccc1)(c1ccccc1)C(C)(C)C)[C@H](NC(=O)OC(C)(C)C)C(=O)O[Si](c1ccccc1)(c1ccccc1)C(C)(C)C (some centres undefined) ?
Key: 62.6

---

# Test system: SR leukemia
# test-summary: NCI tumour cell line growth inhibition, 48 h
For each of the compounds below, state its GI50.

CCc1c(Oc2ccc(C(C)=O)cc2)c2ccccc2[nH]c1=O :: 9090 nM
NCC(=O)NS(=O)(=O)OC[C@H]1O[C@@H](n2cnc3c(N)ncnc32)[C@H](O)[C@@H]1O :: 936 nM
CN(C)CCNc1cc(-c2ccccc2)nc2ccccc12 :: 2720 nM

// each listed compound needs a value for GI50
1. O=C(NCCOCCOCCNc1cccc2c1C(=O)N(C1CCCNC1=O)C2=O)c1cc2c(o1)C(=O)c1ccccc1C2=O (configuration not stated)
2. COc1ccc(/C(=C2\O[C@@H]([C@H]3COC(C)(C)O3)[C@H]3OC(C)(C)O[C@@H]23)c2cc(OC)c(OC)c(OC)c2)cc1O

Key:
1: 2630 nM; 2: 6270 nM

// batch mode: one GI50 value per listed entry
1. N#CSCC1CC(O)(c2ccccc2)C(c2ccccc2)C(c2ccc(Cl)cc2)O1 (configuration not stated)
2. N#C/C(=C1C=C/C(=N/O)C(Br)=C/1)c1ccccc1

Key:
1900 nM
545 nM

---

# Tested on: UACC-257 melanoma
# test-summary: NCI tumour cell line growth inhibition, 48 h; in the data active means GI50 below about 0.43 µM; inactive means the rest
Would you mind answering with one of these outcomes? t = active, f = inactive

Exercise: Write down the call the test reported for this compound. Item: Cc1ccc(CS/C(=C\c2ccc([N+](=O)[O-])cc2)C(=O)c2ccc(F)cc2)cc1
Key: f

Exercise: Now consider O=C1c2c(c3c4ccccc4n(CCCCCCBr)c3c3[nH]c4ccccc4c23)C(=O)N1O .
Key: f

Exercise: What do you get for N#Cc1ccc(C#Cc2ccccc2C#CCCCCO)cc1 ?
Key: f

Exercise: Also need CC1=C(C(=O)Nc2ccc3[nH]ncc3c2)C(c2ccc3ccccc3c2)CC(=O)N1 (stereo not given) , thanks.
Key: f

Exercise: Further, for CN1CCN(Cc2ccc(NC(=O)c3cncc(C#Cc4cnc(N)c5ccc(C#N)cc45)c3)cc2C(F)(F)F)CC1 ?
Key: t

---

So I've got a bunch of molecules here, and I need their TGI values.
# Tested on: A549 NSCLC
# test-summary: NCI tumour cell line growth inhibition, 48 h
One number for each entry, in µM.

O=C(CI)NC1Oc2ccccc2-c2oc(=O)c(-c3ccccc3)cc21 (centres undefined) :: 6.16
Nc1cc(CO)cc(Nc2nc3ccc(Cl)cc3c3[nH]c4ccccc4c23)c1 :: 57.3
O=C1C(Cl)=C(N2CCN(C3=C(Cl)C(=O)c4ccccc4C3=O)CC2)C(=O)c2ccccc21 :: 28.1

# next molecule below
Exercise: Report TGI for CCCCCCCCCCCC(=O)CC(=O)c1c(O)cccc1O please.
Key: 33.1

---

Answer each item with its documented TGI.
# Test system: BT-549 breast
# test-summary: NCI tumour cell line growth inhibition, 48 h
Answers are plain numbers, in µM.

O=C(O)CN(CCNC(=O)OCC1c2ccccc2-c2ccccc21)CCNC(=O)OCC1c2ccccc2-c2ccccc21 :: 67.4
CNC(=O)OCc1c(COC(=O)NC)c(-c2ccc(Cl)c(Cl)c2)n2c1SCC2 :: 22.4
CCN(CC)CCc1c2c(nc3ccccc13)C(=O)c1cccnc1C2=O :: 7.56

Turning to the following molecule.
Exercise: What value of measured TGI is listed for COc1ccc(-c2cc(-c3ccco3)c(C#N)c(=S)n2C2OC(COC(C)=O)C(OC(C)=O)C(OC(C)=O)C2OC(C)=O)cc1 (stereo not drawn) ?
Key: 8.23

---

# Test system: OVCAR-3 ovarian
# test-summary: NCI tumour cell line growth inhibition, 48 h
I'd appreciate it if you could supply TGI values for the items below.
Numbers only, in µM.

Solved cases below.
Cc1nn(CN2CCN(C)CC2)c(=S)n1/N=C/c1cccc2ccccc12 :: 36
COc1ccc(C2CC(c3c(O)ccc4ccccc34)=NN2c2ccc([N+](=O)[O-])cc2[N+](=O)[O-])cc1OC (centres undefined) :: 58.3
COc1ccc(/C(=C2\O[C@@H]([C@H]3COC(C)(C)O3)[C@H]3OC(C)(C)O[C@@H]23)c2cc(OC)c(OC)c(OC)c2)cc1O :: 5.34

Attention now shifts to the item below.
Exercise: Request the reported TGI associated with Cc1ccc(S(=O)(=O)N(CCOc2ccc(/C(N)=N/Cl)cc2)CCOc2ccc(/C(N)=N\Cl)cc2)cc1
Key: 31
